Molecular target: UniProt P30536
Sequence (P30536 whole entry, species assumed): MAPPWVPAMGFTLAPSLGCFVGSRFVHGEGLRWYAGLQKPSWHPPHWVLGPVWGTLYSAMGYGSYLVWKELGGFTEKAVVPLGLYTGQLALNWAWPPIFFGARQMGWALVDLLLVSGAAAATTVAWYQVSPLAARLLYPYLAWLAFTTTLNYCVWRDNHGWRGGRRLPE
Assay: PBR binding, [^3H]-PK11195
reportedMetric: Ki (nM)

These solved cases illustrate the format of a correct answer.
molecule	Ki (nM)
COc1ccc(OCCF)c(CN(C(C)=O)c2cccnc2Oc2cccc(C)c2C)c1 [[^19F]-5e]	2.57
COc1ccc(OCCF)c(CN(C(C)=O)c2cc(F)ccc2Oc2ccccc2)c1 [[^19F]-FEDAA1106, reference compound]	1.5

1: CCN(CC)C(=O)Cc1c(-c2ccc(OCCF)cc2)nn2c(C)cc(C)nc12 [[^19F]-DPA-714, reference compound]
2: COc1ccc(Oc2ncccc2N(Cc2cc(OC)ccc2OCCF)C(C)=O)cc1 [[^19F]-2e]
[Q] Please choose the item with the lower Ki value from this pair: 1 and 2 # answer = label of selected item
[A] 1
(1: 1.46 nM, 2: 3.6 nM)

====

Experiment: Biodistribution of [^18F]-radioactivity in healthy male NMRI mice after intravenous injection (gamma counter)
Type: in vivo
Conditions: mice, brain, 2 min to 30 min
reportedMetric: Elimination from mouse brain, 2 min/30 min ratio of brain uptake (% ID/g)

molecule	value
COc1ccc(Oc2ncccc2N(Cc2cc(OC)ccc2OCC[18F])C(C)=O)cc1 [[^18F]-2d]	3.7

1: COc1ccc(OCC[18F])c(CN(C(C)=O)c2cccnc2Oc2cccc(C)c2C)c1 [[^18F]-5d]
2: COc1ccc(OCC[18F])c(CN(C(C)=O)c2cc(F)ccc2Oc2ccccc2)c1 [[^18F]-FEDAA1106, reference compound]
[Q] Identify the item whose Elimination from mouse brain, 2 min/30 min ratio of brain uptake (% ID/g) is the smaller number: 1 or 2 # respond with the chosen item's label
[A] 2
